Assay system: CXCR3 (Homo sapiens, UniProt P49682)
Sequence (P49682 1-368): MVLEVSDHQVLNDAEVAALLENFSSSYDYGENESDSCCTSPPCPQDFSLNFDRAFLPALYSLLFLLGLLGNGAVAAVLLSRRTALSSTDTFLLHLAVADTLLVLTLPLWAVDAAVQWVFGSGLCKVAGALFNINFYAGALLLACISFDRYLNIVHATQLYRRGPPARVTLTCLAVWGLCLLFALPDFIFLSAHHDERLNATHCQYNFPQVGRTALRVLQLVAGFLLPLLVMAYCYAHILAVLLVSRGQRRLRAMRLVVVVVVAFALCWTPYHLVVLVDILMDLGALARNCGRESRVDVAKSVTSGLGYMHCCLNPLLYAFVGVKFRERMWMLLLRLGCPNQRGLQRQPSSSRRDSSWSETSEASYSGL
Quantity measured: Ki (nM)
Numbers only, in nM.

Query string: Using the record for "CCOc1ccc(-n2c([C@@H](C)N(Cc3cccnc3)C(=O)Cc3ccc(F)c(C(F)(F)F)c3)nc3ncccc3c2=O)cc1" , report its Ki.
Result string: 12.6

All values here come from paper PMC4551560.
